All values here come from ChEMBL document CHEMBL1125180.

Task for the reader: assign each of the following molecules its reported Relative potency.
# EXPERIMENTAL PROTOCOL: The relative potency by comparing its IC50 value with that of mevastatin
Kindly provide the number alone.

Respond only with Relative potency recorded for C[C@H]1C=C2C=C[C@H](C)[C@H](CCC3C[C@@H](O)CC(=O)O3)[C@H]2[C@@H](OCc2ccc(F)cc2)C1 (some centres undefined)
119

Respond only with Relative potency recorded for C[C@H]1C=C2C=C[C@H](C)[C@H](CCC3C[C@@H](O)CC(=O)O3)[C@H]2[C@@H](OCc2ccccc2)C1 (some centres undefined)
20

Respond only with Relative potency recorded for CC(=O)O[C@H]1C[C@@H](C)C=C2C=C[C@H](C)[C@H](CCC3C[C@@H](O)CC(=O)O3)[C@H]21 (some centres undefined)
2.1

Respond only with Relative potency recorded for C=C(C)CO[C@H]1C[C@@H](C)C=C2C=C[C@H](C)[C@H](CCC3C[C@@H](O)CC(=O)O3)[C@H]21 (some centres undefined)
1.5

Respond only with Relative potency recorded for C=CCC(=O)O[C@H]1C[C@@H](C)C=C2C=C[C@H](C)[C@H](CCC3C[C@@H](O)CC(=O)O3)[C@H]21 (some centres undefined)
187

Respond only with Relative potency recorded for C[C@H]1C=C2C=C[C@H](C)[C@H](CCC3C[C@@H](O)CC(=O)O3)[C@H]2[C@@H](OCc2ccc(Cl)cc2)C1 (some centres undefined)
8.5

Respond only with Relative potency recorded for C=CCO[C@H]1C[C@@H](C)C=C2C=C[C@H](C)[C@H](CCC3C[C@@H](O)CC(=O)O3)[C@H]21 (some centres undefined)
1.5

Respond only with Relative potency recorded for C[C@H]1C=C2C=C[C@H](C)[C@H](CC[C@@H]3C[C@@H](O)CC(=O)O3)[C@H]2[C@@H](OC(=O)Cc2ccccc2)C1
29

Respond only with Relative potency recorded for CO[C@H]1C[C@@H](C)C=C2C=C[C@H](C)[C@H](CCC3C[C@@H](O)CC(=O)O3)[C@H]21 (some centres undefined)
0.2
